Assay: Metabolic stability in liver microsomes (human)
Assay type: in vitro ADME
Settings: pH 7.4; Human liver microsomes
Listed here are compounds together with their documented half-life at 2 µM.
quantity measured: half-life at 2 µM

# compound, quantity measured, reading
rows = [
    ("CN1CCN(c2ccc(OC(F)(F)F)c(Nc3ncc4c(n3)-c3c(c(C(N)=O)nn3CCO)CC4)c2)CC1 [NMS-P937, onvansertib, reference compound]", "half-life at 2 µM", "1.44 h"),
    ("[2H]C1([2H])N(C)C([2H])([2H])C([2H])([2H])N(c2ccc(OC(F)(F)F)c(Nc3ncc4c(n3)-c3c(c(C(N)=O)nn3CCO)CC4)c2)C1([2H])[2H]", "half-life at 2 µM", "1.5 h"),
]

----------
Experiment: Permeability and transporter substrate test in Caco-2 cells (ABBA)
Type: in vitro ADME
Details: human, pH 7.4; Caco-2, Papp(B-A)/Papp(A-B); read-out: Efflux Rate (ERa)

# compound, efflux ratio at 2 h, 5 µM
measured = [
    ("[2H]C1([2H])N(C)C([2H])([2H])C([2H])([2H])N(c2ccc(OC(F)(F)F)c(Nc3ncc4c(n3)-c3c(c(C(N)=O)nn3CCO)CC4)c2)C1([2H])[2H]", 6.71),
    ("CC(C)NCC(O)COc1cccc2ccccc12 (stereo not drawn)", 0.66),
    ("C[C@H]1O[C@@H](O[C@H]2[C@@H](O)C[C@H](O[C@H]3[C@@H](O)C[C@H](O[C@H]4CC[C@@]5(C)[C@H](CC[C@@H]6[C@@H]5C[C@@H](O)[C@]5(C)[C@@H](C7=CC(=O)OC7)CC[C@]65O)C4)O[C@@H]3C)O[C@@H]2C)C[C@H](O)[C@@H]1O", 27.8),
    ("NC(=O)c1nn(CCO)c2c1CCc1cnc(Nc3cc(N4CCN5CCC[C@@H]5C4)ccc3OC(F)(F)F)nc1-2", 3.04),
    ("[2H]C1([2H])CN(c2ccc(OC(F)(F)F)c(Nc3ncc4c(n3)-c3c(c(C(N)=O)nn3CCO)CC4)c2)C([2H])([2H])[C@H]2CCCN21", 5.98),
    ("CN1CCN(c2ccc(OC(F)(F)F)c(Nc3ncc4c(n3)-c3c(c(C(N)=O)nn3CCO)CC4)c2)CC1 [NMS-P937, onvansertib, reference compound]", 5.61),
]

----------
Assay: Permeability and transporter substrate test in Caco-2 cells (ABBA)
Format: in vitro ADME
Conditions: human, pH 7.4; Caco-2, B to A, 5 µM, 2 hours; read-out: Average Papp PappB-A
Listed here are compounds together with their documented Papp B→A at 2 h, 5 µM.

# compound, Papp B→A at 2 h, 5 µM
data = [
    ("[2H]C1([2H])N(C)C([2H])([2H])C([2H])([2H])N(c2ccc(OC(F)(F)F)c(Nc3ncc4c(n3)-c3c(c(C(N)=O)nn3CCO)CC4)c2)C1([2H])[2H] [CPD06]", "34.7 ×10⁻⁶ cm/s"),
    ("[2H]C1([2H])CN(c2ccc(OC(F)(F)F)c(Nc3ncc4c(n3)-c3c(c(C(N)=O)nn3CCO)CC4)c2)C([2H])([2H])[C@H]2CCCN21 [CPD04]", "25.1 ×10⁻⁶ cm/s"),
    ("NC(=O)c1nn(CCO)c2c1CCc1cnc(Nc3cc(N4CCN5CCC[C@@H]5C4)ccc3OC(F)(F)F)nc1-2 [CPD02]", "23.8 ×10⁻⁶ cm/s"),
    ("C[C@H]1O[C@@H](O[C@H]2[C@@H](O)C[C@H](O[C@H]3[C@@H](O)C[C@H](O[C@H]4CC[C@@]5(C)[C@H](CC[C@@H]6[C@@H]5C[C@@H](O)[C@]5(C)[C@@H](C7=CC(=O)OC7)CC[C@]65O)C4)O[C@@H]3C)O[C@@H]2C)C[C@H](O)[C@@H]1O [Digoxin]", "26.1 ×10⁻⁶ cm/s"),
    ("CN1CCN(c2ccc(OC(F)(F)F)c(Nc3ncc4c(n3)-c3c(c(C(N)=O)nn3CCO)CC4)c2)CC1 [NMS-P937, onvansertib, reference compound]", "34.2 ×10⁻⁶ cm/s"),
    ("COc1cc2nc(N3CCN(C(=O)c4ccco4)CC3)nc(N)c2cc1OC [Prazosin]", "29.6 ×10⁻⁶ cm/s"),
    ("CC(C)NCC(O)COc1cccc2ccccc12 (stereo not shown) [Propranolol]", "14.7 ×10⁻⁶ cm/s"),
]
